test: [^18F]FGln in vivo stability analysis (bioavailable fraction of whole blood radioactivity); conditions: both sexes, BDIX, rat, 40 MBq, healthy BDIX rats, approximately 60 min post-injection, n = 10, read-out: Bioavailable [^18F]FGln-fraction of total blood radioactivity
TEST_READOUT: bioavailability at 60 min (%)

compound="NC(=O)[C@H]([18F])C[C@H](N)C(=O)O [[^18F]FGln, (2S,4R)-4-[^18F]Fluoroglutamine]" test_readout="bioavailability at 60 min" result_value=28.1
